target: Acetylcholinesterase (Homo sapiens); experiment: Inhibition of human recombinant AChE using acetylthiocholine iodide as substrate preincubated for 5 mins followed by substrate addition measured for 5 mins by Ellman's method
Sequence (P22303 whole entry): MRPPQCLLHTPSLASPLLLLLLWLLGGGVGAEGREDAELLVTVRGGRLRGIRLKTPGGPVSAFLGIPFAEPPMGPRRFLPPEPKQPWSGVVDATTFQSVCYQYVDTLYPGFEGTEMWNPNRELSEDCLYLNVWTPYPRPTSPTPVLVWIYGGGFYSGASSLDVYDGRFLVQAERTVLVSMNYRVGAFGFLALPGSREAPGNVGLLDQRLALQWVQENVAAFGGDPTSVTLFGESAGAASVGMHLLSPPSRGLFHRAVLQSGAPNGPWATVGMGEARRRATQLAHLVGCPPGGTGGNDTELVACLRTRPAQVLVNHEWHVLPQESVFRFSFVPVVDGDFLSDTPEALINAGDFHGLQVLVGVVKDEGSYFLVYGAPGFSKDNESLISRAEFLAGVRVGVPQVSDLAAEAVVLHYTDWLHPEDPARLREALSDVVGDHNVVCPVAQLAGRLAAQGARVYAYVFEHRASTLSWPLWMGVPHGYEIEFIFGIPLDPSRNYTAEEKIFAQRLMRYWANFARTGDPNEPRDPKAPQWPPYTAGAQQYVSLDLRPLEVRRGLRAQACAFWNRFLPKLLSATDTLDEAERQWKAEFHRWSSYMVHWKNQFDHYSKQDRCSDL
pIC50: −log10 of the molar value.
Returns one of true or false; true when pIC50 is >= 6.

Example entries and their recorded answers appear below.
## Input // inclusive: pIC50 at least 6? input: COc1ccc(/C=C/C(=O)NCCC2CCN(Cc3ccccc3)CC2)cc1
## Output true

## Input Item: COc1cc(/C=C/C(=O)Nc2cccc(CN(C)Cc3ccccc3)c2)ccc1O
## Output false

## Input Item: COc1ccc(/C=C/C(=O)Nc2ccc(CN(C)Cc3ccccc3)cc2)cc1
## Output false

## Input Item: COc1cccc(/C=C/C(=O)Nc2ccc(CN(C)Cc3ccccc3)cc2)c1
## Output false

## Input Item: COc1cc(/C=C/C(=O)NCCC2CCN(Cc3ccccc3)CC2)ccc1O
## Output true

Further cases:
## Input // inclusive: pIC50 at least 6? input: COc1ccc(/C=C/C(=O)Nc2ccc(CN(C)Cc3ccccc3)cc2)cc1OC
## Output false

## Input Item: CN(Cc1ccccc1)Cc1ccc(NC(=O)/C=C/c2cccc(O)c2)cc1
## Output false

## Input Item: COc1ccc(/C=C/C(=O)NCCC2CCN(Cc3ccccc3)CC2)c(OC)c1
## Output true

## Input Item: COc1ccc(/C=C/C(=O)Nc2ccc(CN(C)Cc3ccccc3)cc2)c(OC)c1
## Output false

## Input Item: COc1ccc(/C=C/C(=O)NCCC2CCN(Cc3ccccc3)CC2)cc1OC
## Output true

## Input Item: O=C(/C=C/c1ccc(O)c(O)c1)NCCC1CCN(Cc2ccccc2)CC1
## Output false
